# Target System: Receptor tyrosine-protein kinase erbB-2 (Homo sapiens)
# Protocol Notes: reducers of endogenous Her2 protein level, primary screen, SKBR3 breast tumor cells, AlphaScreen, ATP viability (AID 461);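 note: lower value means less Her2 protein in the cells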
# Study Conditions: 18-24 h, at 10 µM, stronger effect = lower value
Observed Property: Her2 level (%)
One number for each entry, in %.

Worked cases, answers included:
Enquiry: Requested read-out Her2 level, target or system Receptor tyrosine-protein kinase erbB-2 (Homo sapiens), entry Cc1nc2ccccc2c(=O)n1/N=C/c1ccncc1
Return: 99.5

Enquiry: Okay, and CC(=O)c1c(C)nc(C)nc1NC(=O)Cc1ccccc1 ?
Return: 102

Field: next molecule
Enquiry: What value of Her2 level on Receptor tyrosine-protein kinase erbB-2 (Homo sapiens) does Cc1cc(NC(=O)c2ccc3c(c2)C(=O)N(Cc2cccnc2)C3=O)no1 have?
Return: 110

----------
# Protocol Notes: SK-BR-3 cell growth inhibitors, pilot screen, 24 h, human (AID 572);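 note: compound exposure lasted between 18 and 24 h rather than exactly 24 h; 100% = carrier-treated control wells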
# Study Conditions: SK-BR-3 viability, CellTiter-Glo luminescence, at 10 µM, stronger effect = lower value
Observed Property: viability (%)
Answers are plain numbers, in %.

Enquiry: Requested field: viability. Item: CCc1ccc2nc(NC(=O)CSCc3c(C)noc3C)sc2c1
Return: 88.5

Enquiry: Now the compound N[C@@H](Cc1ccccc1)c1nnc2sc(SCc3ccccc3)nn12
Return: 90

Enquiry: Next: Cc1ccc(OCC(=O)NCCN2CCCC2)cc1
Return: 97.5

Enquiry: Now consider CCc1nnc(NC(=O)c2cc3c(s2)CCCCC3)s1 and answer again.
Return: 92.5

Enquiry: Repeat with O=C(Nc1cccnc1)c1noc2c1CCCCC2
Return: 110

Report viability for each item below.
1. CCOCCCNC(=O)CCNS(=O)(=O)c1ccc(C)cc1
2. O=c1[nH]c2sc3c(c2c2nncn12)CCCC3

Return:
102
136

----------
What viability was measured for each of the following?
# Protocol Notes: reversal of MRP1-mediated doxorubicin resistance, pilot screen, H69AR cells, doxorubicin co-treatment (AID 601)
# Study Conditions: H69AR cells, CellTiter-Glo, 72 h; compound alone cytotoxicity; at 10 µM
Answers are plain numbers, in %.

Go through the list and state viability for each entry.
1. O=C(Nc1ccc2snnc2c1)N1CCSCC1
2. CN1CC[n+]2cnc3ccccc3c21
3. Cc1ccc(NC(=O)CSc2nnc(Cc3cccn3C)n2-c2ccc(F)cc2)cc1
4. COC(=O)c1ccccc1S(=O)(=O)NC(=O)c1ccccc1
5. O=C(NCc1ccccc1)N1CCn2c(nc3ccccc32)C1
6. COCCNC(=O)c1c(N)n(CCC2=CCCCC2)c2nc3ccccc3nc12
7. CCCc1nnc(SCC(=O)N2CCOCC2)n1Cc1ccco1
8. COc1cccc(NC(=O)N[C@@H](Cc2ccccc2)C(=O)O)c1

Return:
1. 98.9
2. 97.3
3. 91.9
4. 88.2
5. 92.9
6. 89
7. 96.9
8. 114

----------
# Protocol Notes: reversal of MRP1-mediated doxorubicin resistance, pilot screen, H69AR cells, doxorubicin co-treatment (AID 601)
# Study Conditions: H69AR cells, CellTiter-Glo, 72 h; compound alone cytotoxicity; at 10 µM
Binary label based on viability with cut-off 90%: below gives fulfilled, not below gives not fulfilled.

Enquiry: In the record for CC1(C)OC(=O)C(=CNC(CCC(N)=O)C(=O)O)C(=O)O1 (stereo not given) , is viability less than 90%?
Return: fulfilled

Enquiry: Repeat with O=C(NCc1cccs1)c1cc2c(s1)-c1ccccc1OC2
Return: not fulfilled

More entries:
Enquiry: Hello, I'm reviewing records and need to know if viability of CCOC(=O)CSc1nc(C)c(C(=O)OCC)s1 is below 90%. Could you check?
Return: not fulfilled

FYI, the data here is from PubChem BioAssay.
